assay: Half life in human hepatocytes at 1 uM measured after 30 mins by LC-MS/MS analysis; format: ADME, cell-based, Hepatocyte
MEASURED_QUANTITY: half-life at 1 µM

{"columns": ["COMPOUND_STRING", "OBSERVED_RESULT"],
 "data": [
  ["O=C1CCCc2cc(Nc3c(NCc4ccccn4)c(=O)c3=O)ccc21", "41.9 min"],
  ["O=c1c(NCc2ccccn2)c(-c2ccc(N3CCOCC3)cc2)c1=O", "31.7 min"],
  ["O=c1c(NCc2ccccn2)c(Nc2ccc(N3CCOCC3)cc2)c1=O", "> 93.2 min"],
  ["O=c1c(NCc2ccccn2)c(Nc2ccc3c(c2)CCC3)c1=O", "10.3 min"],
  ["O=c1c(NCc2ccccn2)c(Nc2ccc3c(c2)OCO3)c1=O", "> 93.2 min"],
  ["Cc1cc(Nc2c(NCc3ccccn3)c(=O)c2=O)ccc1N1CCSCC1", "9 min"],
  ["O=c1c(NCc2ccccn2)c(Nc2ccc(N3CCSCC3)cc2)c1=O", "12.1 min"]
]}
